Entry source: patent US6355799B1

tested on: upland rice (Oryza sp., var. Tebonnet, RICE); assay: Pre-emerge test, crop safety; format: in vivo; conditions: 63 g ai/ha; pre-emerge; rated 14 days after application; 0 = no damage, 100 = complete death
Observable: Pre-emerge crop damage RICE (phytotoxicity rating, scale 0-100)
Just the number, please, no unit after it.

# Compound, Result
measured = [
    ("CCc1ccc(C(=O)Nc2c(OCC#N)c(Cl)cc(F)c2-n2c(=O)cc(C(F)(F)F)n(C)c2=O)cc1", 60),
    ("Cn1c(C(F)(F)F)cc(=O)n(-c2c(F)cc(Cl)c(OC3CCCC3)c2N)c1=O", 0),
    ("COc1c(Cl)cc(F)c(-n2c(=O)c([N+](=O)[O-])c(C(F)(F)F)n(C)c2=O)c1[N+](=O)[O-]", 95),
    ("C=C(C)C(=O)Nc1c(OC)c(Cl)cc(F)c1-n1c(=O)cc(C(F)(F)F)n(C)c1=O", 70),
]

Pre-emerge crop damage RICE (phytotoxicity rating, scale 0-100) in this record for `COc1c(Cl)cc(F)c(-n2c(=O)cc(C(F)(F)F)n(C)c2=O)c1N(C(=O)C=C(C)C)C(=O)C=C(C)C` : 50

Pre-emerge crop damage RICE (phytotoxicity rating, scale 0-100) in this record for `CC(C)Oc1c(Cl)cc(F)c(-n2c(=O)cc(C(F)(F)F)n(C)c2=O)c1N` : 80

Pre-emerge crop damage RICE (phytotoxicity rating, scale 0-100) in this record for `C=C(C)C(=O)N(C(=O)C(=C)C)c1c(OC)c(Cl)cc(F)c1-n1c(=O)cc(C(F)(F)F)n(C)c1=O` : 0
